- Tested on: Complex I (bovine heart mitochondria)
- MEASUREMENT_DESCRIPTION: MitoCheck Complex I activity assay
- DETAILS: 30 μM; bovine heart mitochondria; NADH oxidation
// reported Mito Check I, enzyme residual activity as compared to DMSO-treated sample per item
MEASUREMENT_TYPE: Mito Check I, enzyme residual activity as compared to DMSO-treated sample (%)

{"MOLECULE": "CCCCOCCCNC1=C(Cl)C(=O)c2ccccc2C1=O [compound 26]", "RECORDED_VALUE": 112}
{"MOLECULE": "CC1CN1C1=C(Cl)C(=O)c2ccccc2C1=O (stereo not shown) [compound 16]", "RECORDED_VALUE": 58}
{"MOLECULE": "COC1=C(N2CC2)C(=O)c2ccccc2C1=O [compound 54]", "RECORDED_VALUE": 84}
{"MOLECULE": "COCCNC1=C(Cl)C(=O)c2ccccc2C1=O [compound 21]", "RECORDED_VALUE": 104}
{"MOLECULE": "CCCC(=O)NC1=C(Cl)C(=O)c2ccccc2C1=O [compound 31]", "RECORDED_VALUE": 159}
{"MOLECULE": "Cc1ccccc1NC1=C(Cl)C(=O)c2ccccc2C1=O [compound 40]", "RECORDED_VALUE": 103}
{"MOLECULE": "CCCCC(=O)NC1=C(Cl)C(=O)c2ccccc2C1=O [compound 32]", "RECORDED_VALUE": 135}
{"MOLECULE": "O=C1C(Cl)=C(NCCO)C(=O)c2ccccc21 [compound 17]", "RECORDED_VALUE": 38}
{"MOLECULE": "O=C1C(Cl)=C(Nc2ccccc2)C(=O)c2ccccc21 [compound 39]", "RECORDED_VALUE": 91}
{"MOLECULE": "O=C1C(Nc2ccccc2)=CC(=O)c2ncccc21 [compound 67, reference compound]", "RECORDED_VALUE": 116}

Value source: paper PMC6433232
